test system: third stage larvae of Spodoptera litura; assay: Test to larvae of Spodoptera litura (leaf immersion); format: in vivo; settings: efficacious component concentration 20 ppm; batata leaves immersed; 25° C.; after 7 days; average of two dishes
VALUE_TYPE: insecticidal ratio (ratio of the dead larvae)

May I ask what insecticidal ratio (ratio of the dead larvae) has been recorded for CCc1cc(C(F)(C(F)(F)F)C(F)(F)F)cc(C)c1NC(=O)c1cccc(NC(=O)c2cc(Cl)ccc2Cl)c1 ?
100%

Further, for CCc1cc(C(F)(C(F)(F)F)C(F)(F)F)cc(C)c1NC(=O)c1cccc(NC(=O)c2cc(Cl)sc2Cl)c1 ?
100%

Record: CCc1cc(C(F)(C(F)(F)F)C(F)(F)F)cc(C)c1NC(=O)c1cccc(NC(=O)c2ccccc2C(F)(F)F)c1
100%

Similarly, CCc1cc(C(F)(C(F)(F)F)C(F)(F)F)cc(C)c1NC(=O)c1cccc(NC(=O)c2ccc(F)cc2)c1 ?
100%
